target.under.test: DA D1 receptor (Rattus norvegicus, UniProt P18901)
Sequence (P18901 whole entry): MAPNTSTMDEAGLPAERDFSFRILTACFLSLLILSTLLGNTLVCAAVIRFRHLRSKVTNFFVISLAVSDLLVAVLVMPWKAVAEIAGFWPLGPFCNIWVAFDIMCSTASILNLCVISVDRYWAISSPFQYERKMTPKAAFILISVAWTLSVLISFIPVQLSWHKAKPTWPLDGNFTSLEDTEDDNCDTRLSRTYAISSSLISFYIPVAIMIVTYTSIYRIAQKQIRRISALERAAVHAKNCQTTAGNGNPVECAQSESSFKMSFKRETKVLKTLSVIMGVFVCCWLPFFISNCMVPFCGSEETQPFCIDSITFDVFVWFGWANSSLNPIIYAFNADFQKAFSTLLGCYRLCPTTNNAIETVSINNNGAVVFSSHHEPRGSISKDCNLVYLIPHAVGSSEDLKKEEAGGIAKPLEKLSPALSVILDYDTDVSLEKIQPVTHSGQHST
protocol.details: biochemical
Type: binding
condition.label: rat striatal membranes, 3H-SCH 23390; read-out: Receptor Binding; IC50, D1 3H-SCH
Entries and their measured IC50 follow.
Record the value in nM, omitting the unit from your answer.

Study these solved cases before continuing.
CN1CCN([C@@H]2C[C@@H](c3ccc(F)cc3)c3c(Cl)cccc32)CC1(C)C (racemic) : 45
Fc1ccc([C@@H]2C[C@@H](N3CCNC4(CCCCC4)C3)c3cc(Cl)ccc32)cc1 (racemic) : 6.4

Write down IC50 measured for item CC(C)C1CN([C@@H]2C[C@@H](c3ccc(F)cc3)c3ccc(Cl)cc32)CCN1 (relative stereo) [Compound 20]
6

Quote IC50 reported for CN1CCN([C@@H]2C[C@@H](c3ccccc3)c3ccc(Cl)cc32)CC1(C)C (racemic) please.
1.6

Identify measured IC50 associated with CC1CN([C@@H]2C[C@@H](c3ccc(F)cc3)c3ccc(Cl)cc32)CCN1C (mixture of isomers)
2.4

Using the record for CCC1(CC)CN([C@@H]2C[C@@H](c3ccc(F)cc3)c3ccc(Cl)cc32)CCN1 (racemic) , state its measured IC50.
4.7

Given C[C@@H]1CN([C@@H]2C[C@@H](c3ccc(F)cc3)c3ccc(C(F)(F)F)cc32)C[C@H](C)N1 (racemic) , respond with its IC50.
50

The reported measurements were obtained from patent US5807855A.
